Hi there, I'd appreciate the recorded absorbance at 450 nm for every entry that follows.
Target: T1, human CD40-Fc protein (amino acid residue 21-193 of SEQ ID NO: 67 linked to N-terminus of amino acid residue … (human, biotin-labeled in the capture ELISA and in the benchmark blocking ELISA; unlabeled when coated in the ligand blocking ELISA)
T1 construct: also called biotin-labeled human CD40-Fc; human CD40-Fc-biotin
T1 sequence (chain, as listed by the source): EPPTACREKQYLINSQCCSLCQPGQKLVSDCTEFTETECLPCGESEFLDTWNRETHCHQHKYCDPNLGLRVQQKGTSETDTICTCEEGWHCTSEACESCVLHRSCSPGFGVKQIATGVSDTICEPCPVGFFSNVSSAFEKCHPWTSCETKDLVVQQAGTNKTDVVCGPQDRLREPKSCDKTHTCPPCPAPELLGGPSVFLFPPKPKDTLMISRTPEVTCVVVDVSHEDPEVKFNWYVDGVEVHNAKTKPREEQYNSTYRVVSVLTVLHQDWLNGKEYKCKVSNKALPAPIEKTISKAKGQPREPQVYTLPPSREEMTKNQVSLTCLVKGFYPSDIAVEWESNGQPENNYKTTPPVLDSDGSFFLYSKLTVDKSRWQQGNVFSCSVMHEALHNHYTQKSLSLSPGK
Assay: capture ELISA, biotin human CD40-Fc; mAb at 80 ng/mL
Expressed in OD450, but write only the number.

The reported value for humanized antibody huC1C1-V2 (antibody, human IgG1, kappa, V domains shown, Human IgG1/kappa) VH: EVQLVESGGGVVQPGRSLRLSCAASGFTFSNYGMSWVRQAPGKGLEWVASISSGGDDTYYPDNVKGRFTISRDNSKNTLYLQMNSLRAEDTAVYYCTRAGGKAMDYWGQGTLVTVSS VL: EIVLTQSPATLSLSPGERATLSCRASQSIRDNLHWYQQKPGQSPRLLINYASQSISGIPARFSGSGSGTDFTLTISSLEPEDFAVYFCQQFNSWPLTFGQGTKVEIKR in terms of absorbance at 450 nm is 1.02

absorbance at 450 nm recorded for this binder, mouse anti-CD40 monoclonal antibody C1C1 (antibody, V domains shown, those are used here for the chimeric antibody only; also called Mouse C1C1; mouse C1C1) VH: EVKLVESGGGLVKPGASLKLSCAASGFTFSNYGMSWVRQNSDKRLEWVASISSGGDDTYYPDNVKGRCTISRENAKNTLYLEMSSLKTEDTALYYCTRAGGKAMDYWGQGTSVTVST VL: DIVLTQSPATLSVIPGNSVSLSCRASQSIRDNLHWYQQKSHESPRLLINYASQSISGIPSRFSGSGSGTDFTLTINSVETEDFGIYFCQQFNSWPLTFGGGTKLELK , is 1.48

Quick note, absorbance at 450 nm for humanized antibody huC1C1-V4 (antibody, human IgG1, kappa, V domains shown, Human IgG1/kappa) VH: EVQLVESGGGVVQPGRSLRLSCAASGFTFSNYGMSWVRQAPGKGLEWVASISSGGDDTYYPDNVKGRCTISRDNSKNTLYLQMNSLRAEDTAVYYCTRAGGKAMDYWGQGTLVTVSS VL: EIVLTQSPATLSLSPGERATLSCRASQSIRDNLHWYQQKPGQSPRLLIYYASQSISGIPARFSGSGSGTDFTLTISSLEPEDFAVYFCQQFNSWPLTFGQGTKVEIKR landed at 1.25

// absorbance at 450 nm lookup, binder = humanized antibody huC1C1-V3 (antibody, human IgG1, kappa, V domains shown, Human IgG1/kappa) VH: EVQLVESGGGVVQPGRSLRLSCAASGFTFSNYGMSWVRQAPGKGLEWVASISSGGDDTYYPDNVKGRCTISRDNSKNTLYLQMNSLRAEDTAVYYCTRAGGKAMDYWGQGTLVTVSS VL: EIVLTQSPATLSLSPGERATLSCRASQSIRDNLHWYQQKPGQAPRLLINYASQSISGIPARFSGSGSGTDFTLTISSLEPEDFAVYFCQQFNSWPLTFGQGTKVEIKR , result: 1.15

response.value for humanized antibody huC1C1-V5 (antibody, human IgG1, kappa, V domains shown, Human IgG1/kappa; also called humanized C1C1-V5) VH: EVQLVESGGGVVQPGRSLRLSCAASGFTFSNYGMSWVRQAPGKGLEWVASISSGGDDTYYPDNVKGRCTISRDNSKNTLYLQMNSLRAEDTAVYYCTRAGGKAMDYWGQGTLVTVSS VL: EIVLTQSPATLSLSPGERATLSCRASQSIRDNLHWYQQKPGQSPRLLINYASQSISGIPARFSGSGSGTDFTLTISSLEPEDFAVYYCQQFNSWPLTFGQGTKVEIKR (field: absorbance at 450 nm) = 1.1

Reported absorbance at 450 nm for humanized antibody huC1C1-V1 (antibody, human IgG1, kappa, V domains shown, Human IgG1/kappa; also called humanized C1C1-V1) VH: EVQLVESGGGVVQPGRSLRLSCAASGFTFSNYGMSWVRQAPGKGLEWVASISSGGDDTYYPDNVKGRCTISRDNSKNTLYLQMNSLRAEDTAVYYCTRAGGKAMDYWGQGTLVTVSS VL: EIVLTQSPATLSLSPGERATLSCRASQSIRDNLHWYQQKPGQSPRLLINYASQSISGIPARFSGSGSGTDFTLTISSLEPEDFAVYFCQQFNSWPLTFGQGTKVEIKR was 1.12

So, chimeric antibody C1C1 (antibody, human IgG1, kappa, V domains shown, also called chC1C1; chimeric C1C1) VH: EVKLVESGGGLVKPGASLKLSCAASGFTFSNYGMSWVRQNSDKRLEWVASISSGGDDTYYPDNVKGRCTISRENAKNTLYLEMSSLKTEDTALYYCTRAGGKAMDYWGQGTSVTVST VL: DIVLTQSPATLSVIPGNSVSLSCRASQSIRDNLHWYQQKSHESPRLLINYASQSISGIPSRFSGSGSGTDFTLTINSVETEDFGIYFCQQFNSWPLTFGGGTKLELKR ? Its absorbance at 450 nm was 1.17
